experiment: clinical; conditions: human, plasma, oral, 50 mg, Cmax, 50 mg Q12H, Day 1; arithmetic mean
MEASUREMENT NAME: Cmax (ng/mL)
Give bare numbers, in ng/mL.

Look up and state reported Cmax for O=C(Cc1ccc(C2CC2)c(F)c1)N1CCN(c2ccc(Cl)nn2)CC1
155

---

assay: in vivo; conditions: monkey, iv
MEASUREMENT NAME: clearance (mL/min/kg)
Answers are plain numbers, in mL/min/kg.

Give reported clearance value for O=C(Cc1ccc(C2CC2)c(F)c1)N1CCN(c2ccc(Cl)nn2)CC1 [Compound (I)]
19.7

---

assay: in vivo; details: rat, iv
MEASUREMENT NAME: clearance (mL/min/kg)
Answers are plain numbers, in mL/min/kg.

Complete the entry with clearance for O=C(Cc1ccc(C2CC2)c(F)c1)N1CCN(c2ccc(Cl)nn2)CC1 [Compound (I)]
32.6

---

assay: clinical; details: human, plasma, oral, 60 mg, AUCtau, 60 mg QD, Day 7; AUC0-24; arithmetic mean
MEASUREMENT NAME: AUC
The number alone won't do; follow it with the unit.

Please report AUC for the following compound: O=C(Cc1ccc(C2CC2)c(F)c1)N1CCN(c2ccc(Cl)nn2)CC1
4050 ng·h/mL

---

assay: clinical; conditions: human, plasma, oral, 60 mg, Cmax, 60 mg QD, Day 1; arithmetic mean
MEASUREMENT NAME: Cmax (ng/mL)
One number for each entry, in ng/mL.

Recall and state the measured Cmax for O=C(Cc1ccc(C2CC2)c(F)c1)N1CCN(c2ccc(Cl)nn2)CC1 [Compound (I)] .
240

---

Experiment: clinical
Conditions: human, plasma, oral, 30 mg, Cmax, 30 mg QD, Day 1; arithmetic mean
Text: Following the screening period, eligible subjects will be admitted to the clinical unit on Day 1. All subjects will receive the study drug for 7 days starting on Day 1. […] Dosing frequency and any instructions regarding meal intake will depend on data from the SAD cohorts and will be provided in a separate document. The dosing duration may be increased to up to 14 days to allow for achievement of 3 half-lives. […]
MEASUREMENT NAME: Cmax
Your reply should be a number followed by the unit it is expressed in.

In one line, give reported Cmax of the entry O=C(Cc1ccc(C2CC2)c(F)c1)N1CCN(c2ccc(Cl)nn2)CC1 [Compound (I)] .
98.3 ng/mL

---

assay: in vivo; conditions: dog, iv
MEASUREMENT NAME: clearance
# include the unit after the value

Assign clearance to the following record: O=C(Cc1ccc(C2CC2)c(F)c1)N1CCN(c2ccc(Cl)nn2)CC1
16.9 mL/min/kg

---

experiment: in vivo; details: rat, po
MEASUREMENT NAME: bioavailability (%)
Give bare numbers, in %.

Read off the recorded bioavailability for O=C(Cc1ccc(C2CC2)c(F)c1)N1CCN(c2ccc(Cl)nn2)CC1
35.2

---

assay: clinical; details: human, plasma, oral, 70 mg, Cmax, 70 mg QD, Day 7; arithmetic mean
MEASUREMENT NAME: Cmax (µg/mL)
One number for each entry, in µg/mL.

# return recorded Cmax for entry O=C(Cc1ccc(C2CC2)c(F)c1)N1CCN(c2ccc(Cl)nn2)CC1
0.4

---

experiment: clinical; conditions: human, plasma, oral, 70 mg, AUCtau, 70 mg QD, Day 7; AUC0-24; arithmetic mean
MEASUREMENT NAME: AUC (ng·h/mL)
Answers are plain numbers, in ng·h/mL.

Entry O=C(Cc1ccc(C2CC2)c(F)c1)N1CCN(c2ccc(Cl)nn2)CC1 needs its AUC filled in; supply it.
2950

---

experiment: clinical; settings: human, plasma, oral, 70 mg, Tmax, 70 mg QD, Day 1; median
MEASUREMENT NAME: Tmax (h)
Numbers only, in h.

For the molecule O=C(Cc1ccc(C2CC2)c(F)c1)N1CCN(c2ccc(Cl)nn2)CC1 [Compound (I)] , give its reported Tmax.
1.5

---

assay: in vivo; details: monkey, po
MEASUREMENT NAME: bioavailability (%)
Give bare numbers, in %.

Given O=C(Cc1ccc(C2CC2)c(F)c1)N1CCN(c2ccc(Cl)nn2)CC1 [Compound (I)] , respond with its bioavailability.
17.6

---

assay: clinical; conditions: human, plasma, oral, 30 mg, Tmax, 30 mg QD, Day 1; median
MEASUREMENT NAME: Tmax (h)
One number for each entry, in h.

Using the record for O=C(Cc1ccc(C2CC2)c(F)c1)N1CCN(c2ccc(Cl)nn2)CC1 [Compound (I)] , state its measured Tmax.
1.5

---

test: clinical; conditions: human, plasma, oral, 50 mg, Tmax, 50 mg Q12H, Day 1; median
MEASUREMENT NAME: Tmax (h)
Give bare numbers, in h.

Look up Tmax of O=C(Cc1ccc(C2CC2)c(F)c1)N1CCN(c2ccc(Cl)nn2)CC1 [Compound (I)] and report it.
1.5

---

test: in vivo; settings: dog, po
MEASUREMENT NAME: bioavailability (%)
Give bare numbers, in %.

Consider the molecule O=C(Cc1ccc(C2CC2)c(F)c1)N1CCN(c2ccc(Cl)nn2)CC1 [Compound (I)] . State its measured bioavailability.
29.8

---

test: clinical; settings: human, plasma, oral
MEASUREMENT NAME: half-life

Look up half-life of O=C(Cc1ccc(C2CC2)c(F)c1)N1CCN(c2ccc(Cl)nn2)CC1 [Compound (I)] and report it.
6 to 8 h

---

assay: clinical; details: human, plasma, oral, 30 mg, Tmax, 30 mg QD, Day 7; median
MEASUREMENT NAME: Tmax (h)
Numbers only, in h.

Give the value of Tmax reported for the following: O=C(Cc1ccc(C2CC2)c(F)c1)N1CCN(c2ccc(Cl)nn2)CC1
1.5

---

experiment: clinical; settings: human, plasma, oral, 60 mg
MEASUREMENT NAME: half-life (h)
Give bare numbers, in h.

For the compound O=C(Cc1ccc(C2CC2)c(F)c1)N1CCN(c2ccc(Cl)nn2)CC1 , give its measured half-life value.
6.7
